Method notes: Micafungin plasma pharmacokinetics in adult patients treated with ECMO (samples before and after the oxygenation membrane)
Type: in vivo, human
Assay conditions: human, plasma, iv, 100 mg, day 4, ECMO patients without hepatic failure, after membrane, 100mg iv; read-out: No hepatic failure AUCout
*1 amine or outer side, *2 acyl side, *3 side chain or, on linkers, in order; H or OH if unused. Where a SMILES comes first, the peptide text is derived from it. Bridges are numbered along the chain shown (N, C = ends). [ ]: non-standard residue; d: D form. The star is where a group is joined. hTyr(3S-OH,4S-OH,3'-OSO3H) = N[C@H](C(=O)O)[C@H](O)[C@@H](O)c1ccc(O)c(OS(=O)(=O)O)c1; Orn(4R-OH,5R-OH) = O=C([C@H](C[C@@H](O)[C@@H](O)N[*:3])N[*:1])[*:2]; Pro(3S-OH,4S-Me) = C[C@H]1CN[C@H](C(=O)O)[C@H]1O; X1 = CCCCCOc1ccc(-c2cc(-c3ccc(C(=O)*)cc3)no2)cc1; Gln(3R-OH) = NC(=O)C[C@@H](O)[C@H](N)C(=O)O; Hyp = O=C(O)[C@@H]1C[C@@H](O)CN1
Recorded endpoint: AUC (µg·h/mL)
Give bare numbers, in µg·h/mL.

Q: Fill blank: measured AUC of the compound CCCCCOc1ccc(-c2cc(-c3ccc(C(=O)N[C@H]4C[C@@H](O)[C@@H](O)NC(=O)[C@@H]5[C@@H](O)[C@@H](C)CN5C(=O)[C@H]([C@H](O)CC(N)=O)NC(=O)[C@H]([C@H](O)[C@@H](O)c5ccc(O)c(OS(=O)(=O)O)c5)NC(=O)[C@@H]5C[C@@H](O)CN5C(=O)[C@H]([C@@H](C)O)NC4=O)cc3)no2)cc1 [micafungin] (X1-[Orn(4R-OH,5R-OH)]T[Hyp][hTyr(3S-OH,4S-OH,3'-OSO3H)][Gln(3R-OH)][Pro(3S-OH,4S-Me)]; lactam 1-C) is ____.
Result: 117

* * *

Method notes: Micafungin plasma pharmacokinetics in adult patients treated with ECMO (samples before and after the oxygenation membrane)
Type: in vivo, human
Assay conditions: human, plasma, iv, 100 mg, Table 2, day 4, before membrane, 100mg iv, ECMO patients, plasma HPLC, median; read-out: Cmax in
*1 amine or outer side, *2 acyl side, *3 side chain or, on linkers, in order; H or OH if unused. Where a SMILES comes first, the peptide text is derived from it. Bridges are numbered along the chain shown (N, C = ends). [ ]: non-standard residue; d: D form. The star is where a group is joined. hTyr(3S-OH,4S-OH,3'-OSO3H) = N[C@H](C(=O)O)[C@H](O)[C@@H](O)c1ccc(O)c(OS(=O)(=O)O)c1; Orn(4R-OH,5R-OH) = O=C([C@H](C[C@@H](O)[C@@H](O)N[*:3])N[*:1])[*:2]; Pro(3S-OH,4S-Me) = C[C@H]1CN[C@H](C(=O)O)[C@H]1O; X1 = CCCCCOc1ccc(-c2cc(-c3ccc(C(=O)*)cc3)no2)cc1; Gln(3R-OH) = NC(=O)C[C@@H](O)[C@H](N)C(=O)O; Hyp = O=C(O)[C@@H]1C[C@@H](O)CN1
Recorded endpoint: Cmax (ng/mL)
Numbers only, in ng/mL.

Q: Fill blank: measured Cmax of the compound CCCCCOc1ccc(-c2cc(-c3ccc(C(=O)N[C@H]4C[C@@H](O)[C@@H](O)NC(=O)[C@@H]5[C@@H](O)[C@@H](C)CN5C(=O)[C@H]([C@H](O)CC(N)=O)NC(=O)[C@H]([C@H](O)[C@@H](O)c5ccc(O)c(OS(=O)(=O)O)c5)NC(=O)[C@@H]5C[C@@H](O)CN5C(=O)[C@H]([C@@H](C)O)NC4=O)cc3)no2)cc1 [micafungin] (X1-[Orn(4R-OH,5R-OH)]T[Hyp][hTyr(3S-OH,4S-OH,3'-OSO3H)][Gln(3R-OH)][Pro(3S-OH,4S-Me)]; lactam 1-C) is ____.
Result: 12200

* * *

Method notes: Micafungin plasma pharmacokinetics in adult patients treated with ECMO (samples before and after the oxygenation membrane)
Type: in vivo, human
Assay conditions: human, plasma, iv, 100 mg, day 1, ECMO patients without acute kidney injury, after membrane, 100mg iv; read-out: No AKI AUCout
Procedure: We conducted an observational, prospective, noninterventional and nondrug-linked study of the PKs and safety of micafungin in adult patients treated with ECMO in two Spanish hospitals: the intensive care unit (ICU) of the Hospital Universitario Marqués de Valdecilla, Santander, and the Anaesthesiology and Reanimation Department of the Hospital Universitario La Fe, Valencia, Spain. Prophylactic micafungin was administered in all patients. The study period was from January 2015 until April 2016. […]
*1 amine or outer side, *2 acyl side, *3 side chain or, on linkers, in order; H or OH if unused. Where a SMILES comes first, the peptide text is derived from it. Bridges are numbered along the chain shown (N, C = ends). [ ]: non-standard residue; d: D form. The star is where a group is joined. hTyr(3S-OH,4S-OH,3'-OSO3H) = N[C@H](C(=O)O)[C@H](O)[C@@H](O)c1ccc(O)c(OS(=O)(=O)O)c1; Orn(4R-OH,5R-OH) = O=C([C@H](C[C@@H](O)[C@@H](O)N[*:3])N[*:1])[*:2]; Pro(3S-OH,4S-Me) = C[C@H]1CN[C@H](C(=O)O)[C@H]1O; X1 = CCCCCOc1ccc(-c2cc(-c3ccc(C(=O)*)cc3)no2)cc1; Gln(3R-OH) = NC(=O)C[C@@H](O)[C@H](N)C(=O)O; Hyp = O=C(O)[C@@H]1C[C@@H](O)CN1
Recorded endpoint: AUC
Remember to put the unit after the number in your answer.

Q: Fill blank: measured AUC of the compound CCCCCOc1ccc(-c2cc(-c3ccc(C(=O)N[C@H]4C[C@@H](O)[C@@H](O)NC(=O)[C@@H]5[C@@H](O)[C@@H](C)CN5C(=O)[C@H]([C@H](O)CC(N)=O)NC(=O)[C@H]([C@H](O)[C@@H](O)c5ccc(O)c(OS(=O)(=O)O)c5)NC(=O)[C@@H]5C[C@@H](O)CN5C(=O)[C@H]([C@@H](C)O)NC4=O)cc3)no2)cc1 [micafungin] (X1-[Orn(4R-OH,5R-OH)]T[Hyp][hTyr(3S-OH,4S-OH,3'-OSO3H)][Gln(3R-OH)][Pro(3S-OH,4S-Me)]; lactam 1-C) is ____.
Result: 61.9 µg·h/mL

* * *

Method notes: Micafungin plasma pharmacokinetics in adult patients treated with ECMO (samples before and after the oxygenation membrane)
Type: in vivo, human
Assay conditions: human, plasma, iv, 100 mg, Table 2, day 1, before membrane, 100mg iv, ECMO patients, plasma HPLC, median; read-out: Cmax in
*1 amine or outer side, *2 acyl side, *3 side chain or, on linkers, in order; H or OH if unused. Where a SMILES comes first, the peptide text is derived from it. Bridges are numbered along the chain shown (N, C = ends). [ ]: non-standard residue; d: D form. The star is where a group is joined. hTyr(3S-OH,4S-OH,3'-OSO3H) = N[C@H](C(=O)O)[C@H](O)[C@@H](O)c1ccc(O)c(OS(=O)(=O)O)c1; Orn(4R-OH,5R-OH) = O=C([C@H](C[C@@H](O)[C@@H](O)N[*:3])N[*:1])[*:2]; Pro(3S-OH,4S-Me) = C[C@H]1CN[C@H](C(=O)O)[C@H]1O; X1 = CCCCCOc1ccc(-c2cc(-c3ccc(C(=O)*)cc3)no2)cc1; Gln(3R-OH) = NC(=O)C[C@@H](O)[C@H](N)C(=O)O; Hyp = O=C(O)[C@@H]1C[C@@H](O)CN1
Recorded endpoint: Cmax (µg/mL)
Answers are plain numbers, in µg/mL.

Q: Fill blank: measured Cmax of the compound CCCCCOc1ccc(-c2cc(-c3ccc(C(=O)N[C@H]4C[C@@H](O)[C@@H](O)NC(=O)[C@@H]5[C@@H](O)[C@@H](C)CN5C(=O)[C@H]([C@H](O)CC(N)=O)NC(=O)[C@H]([C@H](O)[C@@H](O)c5ccc(O)c(OS(=O)(=O)O)c5)NC(=O)[C@@H]5C[C@@H](O)CN5C(=O)[C@H]([C@@H](C)O)NC4=O)cc3)no2)cc1 [micafungin] (X1-[Orn(4R-OH,5R-OH)]T[Hyp][hTyr(3S-OH,4S-OH,3'-OSO3H)][Gln(3R-OH)][Pro(3S-OH,4S-Me)]; lactam 1-C) is ____.
Result: 5.85

* * *

Method notes: Micafungin plasma pharmacokinetics in adult patients treated with ECMO (samples before and after the oxygenation membrane)
Assay type: in vivo, human
Assay conditions: human, plasma, iv, 100 mg, Table 2, day 1, after membrane, 100mg iv, ECMO patients, noncompartmental, median; read-out: CL out (converted)
*1 amine or outer side, *2 acyl side, *3 side chain or, on linkers, in order; H or OH if unused. Where a SMILES comes first, the peptide text is derived from it. Bridges are numbered along the chain shown (N, C = ends). [ ]: non-standard residue; d: D form. The star is where a group is joined. hTyr(3S-OH,4S-OH,3'-OSO3H) = N[C@H](C(=O)O)[C@H](O)[C@@H](O)c1ccc(O)c(OS(=O)(=O)O)c1; Orn(4R-OH,5R-OH) = O=C([C@H](C[C@@H](O)[C@@H](O)N[*:3])N[*:1])[*:2]; Pro(3S-OH,4S-Me) = C[C@H]1CN[C@H](C(=O)O)[C@H]1O; X1 = CCCCCOc1ccc(-c2cc(-c3ccc(C(=O)*)cc3)no2)cc1; Gln(3R-OH) = NC(=O)C[C@@H](O)[C@H](N)C(=O)O; Hyp = O=C(O)[C@@H]1C[C@@H](O)CN1
Recorded endpoint: clearance (mL/min)
Answers are plain numbers, in mL/min.

Q: Fill blank: measured clearance of the compound CCCCCOc1ccc(-c2cc(-c3ccc(C(=O)N[C@H]4C[C@@H](O)[C@@H](O)NC(=O)[C@@H]5[C@@H](O)[C@@H](C)CN5C(=O)[C@H]([C@H](O)CC(N)=O)NC(=O)[C@H]([C@H](O)[C@@H](O)c5ccc(O)c(OS(=O)(=O)O)c5)NC(=O)[C@@H]5C[C@@H](O)CN5C(=O)[C@H]([C@@H](C)O)NC4=O)cc3)no2)cc1 [micafungin] (X1-[Orn(4R-OH,5R-OH)]T[Hyp][hTyr(3S-OH,4S-OH,3'-OSO3H)][Gln(3R-OH)][Pro(3S-OH,4S-Me)]; lactam 1-C) is ____.
Result: 16.5
